Biological target: Cytochrome P450 1A2 (Homo sapiens)
Test: Cytochrome panel assay with activity outcomes
Settings: recombinant CYP, pro-luciferin dealkylation, luminescence, p450-cyp1a2; series mostly up to 57.1 µM
In all, about 16,000 compounds went through this assay and about 5,700 (36%) were called active. Roughly 24% stayed inconclusive and do not appear here. Calls come from the whole dose curve; as a rule, active = well fitted curve in the direction sought with a large enough effect; inconclusive = small, poorly fitted or top-dose-only effect, or effect the other way; inactive = no such curve, though single readings can be large or run the other way. This is one part of the list.
// classify into active, inactive

For orientation, consider the following solved cases.
| Molecule | Target or system | Label value |
| --- | --- | --- |
| N=C(N)SCCN | Cytochrome P450 1A2 (Homo sapiens) | inactive |
| CC(C)CN1CC[C@@]2(CCCN(C(=O)c3csnn3)C2)C1 | Cytochrome P450 1A2 (Homo sapiens) | inactive |
| CCCCN1CCC(n2c(=O)[nH]c3ccccc32)CC1 | Cytochrome P450 1A2 (Homo sapiens) | inactive |

Next molecule, please.
(Q) What classification did `COc1ccccc1C(=O)N1CCN(c2ccccn2)CC1` end up with in this test?
(A) inactive
